Data origin: patent US11040958B2

Below, each of the compounds is paired with its reported Human intestinal S9 T1/2 value.
experiment: In vitro metabolic stability in human intestinal S9; format: in vitro ADME; conditions: 37°C, S9 1 mg/mL, compound 10 μM, NADPH regeneration system
reported property: Human intestinal S9 T1/2

INSERT INTO measurements (compound, reported_property, readout_value) VALUES
  ('CC(O)C(N)C(=O)OCc1cccnc1N(C)C(=O)OC(C)[n+]1cnn(CC(O)(c2ccc(F)cc2F)C(C)c2ncncc2F)c1.Cl.Cl.[Cl-] (centres unmarked)', 'Human intestinal S9 T1/2', '15.72 ± 0.98 min'),
  ('CC(OC(=O)N(C)c1ncccc1COC(=O)CN)[n+]1cnn(C[C@](O)(c2ccc(F)cc2F)[C@@H](C)c2ncncc2F)c1.[Cl-] (some centres unmarked)', 'Human intestinal S9 T1/2', '10.09 ± 1.75 min'),
  ('CC(OC(=O)N(C)c1ncccc1COC(=O)[C@@H](N)CCCCN)[n+]1cnn(C[C@](O)(c2ccc(F)cc2F)[C@@H](C)c2ncncc2F)c1.[Cl-] (some centres unmarked)', 'Human intestinal S9 T1/2', '11.25 ± 2.21 min'),
  ('CC(OC(=O)N(C)c1ncccc1COC(=O)CN(C)C)[n+]1cnn(C[C@](O)(c2ccc(F)cc2F)[C@@H](C)c2ncncc2F)c1.Cl.Cl.[Cl-] (some centres unmarked)', 'Human intestinal S9 T1/2', '32.97 ± 8.45 min'),
  ('CC(OC(=O)N(C)c1ncccc1COC(=O)[C@@H](N)CCCN)[n+]1cnn(C[C@](O)(c2ccc(F)cc2F)[C@@H](C)c2ncncc2F)c1.Cl.Cl.Cl.[Br-] (some centres unmarked)', 'Human intestinal S9 T1/2', '30.25 ± 4.90 min'),
  ('CC(OC(=O)N(C)c1ncccc1COC(=O)C(N)CO)[n+]1cnn(CC(O)(c2ccc(F)cc2F)C(C)c2ncncc2F)c1.Cl.Cl.[Cl-] (centres unmarked)', 'Human intestinal S9 T1/2', '12.72 ± 1.72 min'),
  ('CC(OC(=O)N(C)c1ncccc1COC(=O)[C@@H](N)CCN)[n+]1cnn(C[C@](O)(c2ccc(F)cc2F)[C@@H](C)c2ncncc2F)c1.[Cl-] (some centres unmarked)', 'Human intestinal S9 T1/2', '18.21 ± 2.04 min'),
  ('CN[C@@H](CSC(=O)OC(C)[n+]1cnn(C[C@](O)(c2ccc(F)cc2F)[C@@H](C)c2ncncc2F)c1)C(=O)O.Cl.[Cl-] (some centres unmarked)', 'Human intestinal S9 T1/2', '29.12 ± 2.09 min');
